# ASSAYED TARGET: M2 (Homo sapiens, UniProt P08172)
# Sequence (P08172 whole entry): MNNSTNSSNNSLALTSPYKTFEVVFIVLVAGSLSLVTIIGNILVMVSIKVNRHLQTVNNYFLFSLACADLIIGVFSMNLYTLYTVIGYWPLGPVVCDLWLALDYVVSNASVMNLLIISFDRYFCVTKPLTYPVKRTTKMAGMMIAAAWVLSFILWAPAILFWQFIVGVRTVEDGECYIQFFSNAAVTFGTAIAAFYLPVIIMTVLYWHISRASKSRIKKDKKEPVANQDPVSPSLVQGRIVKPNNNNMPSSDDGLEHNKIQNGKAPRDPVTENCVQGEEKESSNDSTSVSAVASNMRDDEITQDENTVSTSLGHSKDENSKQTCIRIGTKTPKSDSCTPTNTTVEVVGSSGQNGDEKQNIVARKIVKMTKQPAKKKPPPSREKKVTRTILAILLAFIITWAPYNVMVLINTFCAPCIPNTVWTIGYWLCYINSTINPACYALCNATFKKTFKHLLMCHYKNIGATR
# METHOD NOTES: In vitro functional assay of muscarinic acetylcholine receptor activity, M2
# Type: cell-based
# ASSAY CONTEXT: antagonist IC50 at M2; read-out: M2 IC50

>  <MOLECULE>
O=C(CCS(=O)(=O)c1c(F)ccc2nccn12)N1CC2CCC(C1)N2c1ccc(F)cn1 [Example 121]

>  <IC50>
100 to 1000 nM

$$$$
>  <MOLECULE>
COc1cnc2cccc(CNCCC(=O)N3CC4CCC(C3)N4c3ccc(Cl)cn3)c2c1 [Example 178]

>  <IC50>
> 10000 nM

$$$$
>  <MOLECULE>
Cc1cc(F)cnc1N1CCN(C(=O)CCCS(=O)(=O)c2cccc3ncsc23)[C@@H](C)C1 [Example 97]

>  <IC50>
1000 to 10000 nM

$$$$
>  <MOLECULE>
N#Cc1ccc(N2CC3CCC2CN3C(=O)CCS(=O)(=O)c2cccc3ncsc23)nc1 (stereo not shown) [Example 125]

>  <IC50>
100 to 1000 nM

$$$$

Values compiled from patent US11512090B2.
